The origin of these recorded values is patent US10434112B2.

target: UniProt:P25090; test: FPRL-1 Ga16-CHO EC50 (efficacy); format: cell-based; conditions: Table 3; value in brackets
Assay metric: FPRL-1 Gal16-CHO (efficacy)
Could you keep your reply to the number by itself?

[
  {
    "Compound": "CCC1(CC)NC(=O)N(CC(=O)Nc2ccc(Br)cc2)C1=O",
    "Obs value": 0.98
  }
]

Problem: Dear colleague, please send me the reported FPRL-1 Gal16-CHO (efficacy) for O=C(CN1C(=O)C2CC=CCC2C1=O)Nc1ccc(Br)cc1 (centres unmarked) when you can.
Result: 0.98

Problem: Dear colleague, please send me the reported FPRL-1 Gal16-CHO (efficacy) for O=C(CN1C(=O)C2C3C=CC(C3)C2C1=O)Nc1ccc(Br)cc1 (centres unmarked) when you can.
Result: 0.90

Problem: Dear colleague, please send me the reported FPRL-1 Gal16-CHO (efficacy) for `CC1(C)NC(=O)N(CC(=O)Nc2ccc(Br)cc2)C1=O` when you can.
Result: 0.94

Problem: Dear colleague, please send me the reported FPRL-1 Gal16-CHO (efficacy) for `O=C(CN1C(=O)NC2(CCCCC2)C1=O)Nc1ccc(Br)cc1` when you can.
Result: 0.89

###

target: FPRL-1 (Homo sapiens (Human)); assay: FPRL-1 Ga16-CHO EC50 (efficacy); type: cell-based; conditions: Table 2; value in brackets
Sequence (P25090 whole entry): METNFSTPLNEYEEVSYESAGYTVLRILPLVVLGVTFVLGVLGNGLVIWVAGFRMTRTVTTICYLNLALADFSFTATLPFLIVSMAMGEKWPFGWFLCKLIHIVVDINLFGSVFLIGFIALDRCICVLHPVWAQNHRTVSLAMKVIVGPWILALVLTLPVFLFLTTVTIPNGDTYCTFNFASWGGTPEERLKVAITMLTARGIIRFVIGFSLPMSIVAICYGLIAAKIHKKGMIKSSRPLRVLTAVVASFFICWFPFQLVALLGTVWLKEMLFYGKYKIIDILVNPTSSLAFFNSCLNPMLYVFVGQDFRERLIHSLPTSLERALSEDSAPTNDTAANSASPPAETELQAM
Assay metric: FPRL-1 Ga16-CHO (efficacy)
Could you keep your reply to the number by itself?

Look over these answered cases.
[
  {
    "Compound": "CC1(CCc2ccccc2)NC(=O)N(NC(=O)Nc2ccccc2)C1=O (centres unmarked)",
    "FPRL-1 Ga16-CHO (efficacy)": 1.0
  },
  {
    "Compound": "O=C(Nc1ccc(Cl)cc1)NN1C(=O)NC2(CCCCC2)C1=O",
    "FPRL-1 Ga16-CHO (efficacy)": 0.98
  }
]

Problem: Dear colleague, please send me the reported FPRL-1 Ga16-CHO (efficacy) for CCC1(C)NC(=O)N(NC(=O)Nc2ccc(Cl)cc2)C1=O (centres unmarked) when you can.
Result: 0.96

Problem: Dear colleague, please send me the reported FPRL-1 Ga16-CHO (efficacy) for Cc1ccc(NC(=O)NN2C(=O)NC3(CCC(C)CC3)C2=O)cc1 (centres unmarked) when you can.
Result: 0.91

Problem: Dear colleague, please send me the reported FPRL-1 Ga16-CHO (efficacy) for CC1(CCc2ccccc2)NC(=O)N(NC(=O)Nc2ccccc2F)C1=O (centres unmarked) when you can.
Result: 0.94

###

Quick reference: FPR2 (% eff) of the listed items.
target: UniProtKB P25090; assay: FLIPR Ca+2 response in HEK-Gα16 cells stably expressing the human FPR2 receptor; type: cell-based; design: unit not given here; conditions: Table 4; value in brackets, given mostly as fraction
Could you keep your reply to the number by itself?

Look over these answered cases.
[
  {
    "Compound": "CC(C)C1(CC(=O)NCCO)NC(=O)N(NC(=O)Nc2ccc(Br)cc2)C1=O (stereo not shown) [Compound 133]",
    "Obs value": 1.0
  },
  {
    "Compound": "CC(C)C[C@H](NC(=O)Nc1ccc(Br)cc1)C(=O)N(C)CC(=O)OC(C)(C)C [Compound 154]",
    "Obs value": 0.85
  },
  {
    "Compound": "CC[C@H](C)[C@H](NC(=O)Nc1ccc(Br)cc1F)C(=O)NCC(=O)O [Compound 59]",
    "Obs value": 0.95
  }
]

Turning now to a further compound:
Problem: Print UniProtKB P25090 FPR2 (% eff) for CCOP(=O)(O)CNC(=O)[C@@H](NC(=O)Nc1ccc(Br)cc1)[C@@H](C)CC [Compound 115] .
Result: 0.88
